Exercise: state measured EC50 for each of the compounds provided.
# TESTED TARGET: Muscarinic acetylcholine receptor M4 (Homo sapiens, UniProt P08173)
# Sequence (P08173 whole entry): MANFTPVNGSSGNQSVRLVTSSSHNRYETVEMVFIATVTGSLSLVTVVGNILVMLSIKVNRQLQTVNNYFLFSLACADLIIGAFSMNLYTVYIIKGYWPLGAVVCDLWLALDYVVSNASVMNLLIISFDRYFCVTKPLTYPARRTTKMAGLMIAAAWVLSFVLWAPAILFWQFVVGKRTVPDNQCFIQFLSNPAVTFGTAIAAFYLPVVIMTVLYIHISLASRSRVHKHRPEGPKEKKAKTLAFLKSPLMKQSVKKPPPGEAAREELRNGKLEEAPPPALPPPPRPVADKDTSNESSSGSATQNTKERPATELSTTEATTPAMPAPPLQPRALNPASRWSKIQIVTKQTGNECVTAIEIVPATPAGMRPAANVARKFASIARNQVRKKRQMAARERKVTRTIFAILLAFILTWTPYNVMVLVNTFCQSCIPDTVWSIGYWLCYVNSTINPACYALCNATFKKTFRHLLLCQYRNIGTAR
# MEASUREMENT DESCRIPTION: Agonist activity at human muscarinic M4 receptor expressed in CHO cells co-expressing Gqi5 chimeric G-protein assessed as effect on calcium mobilization by FLIPR assay
Numbers only here, please. The scale is nM.

Data request: Which EC50 value is on record for `CCO[C@H]1CC[C@](C)(N2CCC(n3c(=O)oc4ccc(S(=O)(=O)CC)cc43)CC2)CC1` ?
Data returned: 1580

Data request: What about this compound? `COCCO[C@H]1CC[C@](C)(N2CCC(n3c(=O)oc4ccc(C#N)cc43)CC2)CC1`
Data returned: 794

Data request: Can you handle `Cc1cc2c(cc1F)[nH]c(=O)n2C1CCN(C2CCOCC2)CC1` next?
Data returned: 251

Data request: Ok, now `CCO[C@H]1CC[C@](C)(N2CCC(n3c(=O)oc4ccc(S(C)(=O)=O)cc43)CC2)CC1`
Data returned: 1580

Data request: Also, `CCCO[C@H]1CC[C@](C)(N2CCC(n3c(=O)oc4ccc(S(C)(=O)=O)cc43)CC2)CC1` please.
Data returned: 501

Data request: Input `CO[C@H]1CC[C@](C)(N2CCC(N3C(=O)Cc4ccc(C)cc43)CC2)CC1`
Data returned: 158

Data request: Please do the same for `CCO[C@H]1CC[C@](C)(N2CCC(N3C(=O)Cc4ccc(C)cc43)CC2)CC1` as well.
Data returned: 31.6

Data request: Now the compound `CCO[C@H]1CC[C@](C)(N2CCC(n3c(=O)oc4ccc(C#N)cc43)CC2)CC1`
Data returned: 794

Data request: One more compound: `CCO[C@H]1CC[C@](C)(N2CCC(n3c(=O)oc4ccccc43)CC2)CC1`
Data returned: 126

Data request: Okay, and `CCO[C@H]1CC[C@](C)(N2CCC(n3c(=O)oc4cc(F)c(C)cc43)CC2)CC1` ?
Data returned: 100

Data request: Same question for `CO[C@H]1CC[C@](C)(N2CCC(n3c(=O)oc4ccc(C)cc43)CC2)CC1` please.
Data returned: 501

Data request: // same read-out, input: `CCO[C@H]1CC[C@](C)(N2CCC(n3c(=O)oc4c(F)cc(C)cc43)CC2)CC1`
Data returned: 200

Data request: Now give it for `CCCO[C@H]1CC[C@](C)(N2CCC(n3c(=O)[nH]c4cc(F)c(C)cc43)CC2)CC1` too.
Data returned: 12.6

Data request: Same read-out for `COCCO[C@H]1CC[C@](C)(N2CCC(n3c(=O)oc4ccc(C)cc43)CC2)CC1` ?
Data returned: 200

Data request: Again, but for `CCCO[C@H]1CC[C@](C)(N2CCC(N3C(=O)Cc4ccc(C)cc43)CC2)CC1`
Data returned: 39.8

Data request: Try this compound next: `CCO[C@H]1CC[C@](C)(N2CCC(n3c(=O)oc4ccc(OC)cc43)CC2)CC1`
Data returned: 158
